Data origin, for the record: patent US12570655B2

testedOn: AKT1 E17K (Homo sapiens, UniProt P31749, E17K)
Sequence (P31749 whole entry E17K): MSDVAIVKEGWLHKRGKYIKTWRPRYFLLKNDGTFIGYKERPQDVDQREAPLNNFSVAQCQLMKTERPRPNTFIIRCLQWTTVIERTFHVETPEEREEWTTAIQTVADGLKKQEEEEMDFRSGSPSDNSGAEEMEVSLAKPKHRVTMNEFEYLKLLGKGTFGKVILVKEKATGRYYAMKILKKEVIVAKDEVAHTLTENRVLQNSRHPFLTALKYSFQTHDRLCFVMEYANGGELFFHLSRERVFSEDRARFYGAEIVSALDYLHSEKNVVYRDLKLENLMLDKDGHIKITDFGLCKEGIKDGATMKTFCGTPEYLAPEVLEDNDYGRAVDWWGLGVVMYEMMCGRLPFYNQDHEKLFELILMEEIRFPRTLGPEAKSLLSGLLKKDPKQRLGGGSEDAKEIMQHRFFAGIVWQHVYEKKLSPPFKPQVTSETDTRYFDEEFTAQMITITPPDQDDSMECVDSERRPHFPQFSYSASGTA
measurementProtocol: Live cell AKT1 E17K target engagement by NanoBRET competitive probe displacement
studyConditions: HEK293 cells transfected with kinase-NanoLuciferase fusion, 2 h at 37° C.
Just a reminder that ties go to 0.0: only IC50 strictly below 10 nM counts as 1.0.

Asked: I wonder whether C=CC(=O)N1CCN(CC2CCc3cc(-n4c(-c5cccnc5N)nc5ccc(-n6cccn6)nc54)ccc32)CC1 (stereo not drawn) has IC50 below 10 nM. Can you tell?
Given back: 1.0

Asked: I wonder whether C=CC(=O)N1CCC(N[C@@H]2c3ccc(-n4c(-c5ccccc5)nc5ccc(-n6cccn6)nc54)cc3CC2F)CC1 (single isomer, unassigned) [Example 249] has IC50 below 10 nM. Can you tell?
Given back: 0.0

Asked: I wonder whether "C=CC(=O)N1CCC(N[C@H]2CCc3cc(-n4c(-c5cccnc5)nc5ccc(-n6cccn6)nc54)ccc32)CC1" has IC50 below 10 nM. Can you tell?
Given back: 0.0

Asked: I wonder whether "C=CC(=O)N1CCC(N[C@@H]2c3ccc(-n4c(-c5cccnc5N)nc5ccc(-n6cccn6)nc54)cc3C[C@@H]2F)CC1" has IC50 below 10 nM. Can you tell?
Given back: 0.0

Asked: I wonder whether "C=CC(=O)N1CCCc2cccc(C(=O)N[C@H]3CCc4cc(-n5c(-c6cccnc6N)nc6ccc(-n7cccn7)nc65)ccc43)c21" has IC50 below 10 nM. Can you tell?
Given back: 0.0

Asked: I wonder whether C=CC(=O)N1CCC(N[C@@H]2c3ccc(-n4c(-c5cccnc5N)nc5ccc(-n6cccn6)nc54)cc3CC2F)C[C@H]1C (single isomer, unassigned) [Example 145] has IC50 below 10 nM. Can you tell?
Given back: 0.0
